Tested on: RAW-Dual
Test: NF-kB SEAP reporter activity, fold change vs agonist alone; higher = enhanced NF-kB activity
Conditions: library stock concentration (final ~1000-fold dilution): 10 mM; cytotoxicity flag (confluency mask): not cytotoxic; agonist: MPLA (TLR4) […]
The full ranking holds about 2,900 compounds; the median of “NF-kB SEAP reporter activity, fold change vs agonist alone” is about 0.99, and the highest 2% start at about 2.6. For the sample, the highest values were picked, then their nearest neighbours and some compounds at random.
Output 1 (yes) for NF-kB SEAP reporter activity not less than 1; output 0 (no) otherwise.

[[record]]
molecule = "COc1cc(CCC(O)CC(O)CCc2ccc(O)c(OC)c2)ccc1O (stereo unspecified)"
answer_label = "1 (yes)"

[[record]]
molecule = "Cc1cc(Nc2cc(Cl)nc(Oc3ccc([N+](=O)[O-])cc3)n2)n[nH]1"
answer_label = "1 (yes)"

[[record]]
molecule = "CN1CCN(C(c2ccccc2)c2ccccc2)CC1.Cl.Cl"
answer_label = "0 (no)"

[[record]]
molecule = "C=C1CC[C@@H]2[C@](C)(CO)[C@H](O)CC[C@@]2(C)[C@@H]1/C=C/C1=CCOC1=O"
answer_label = "0 (no)"

[[record]]
molecule = "CS(=O)(=O)c1cccc(CC(NC(=O)c2c(Cl)cc3c(c2Cl)CCN(C(=O)c2ccc4ccoc4c2)C3)C(=O)O)c1 (stereo unspecified)"
answer_label = "1 (yes)"


Q: For this molecule, is measured NF-kB SEAP reporter activity 1 or higher? CCC(C)C(=O)OC1CC(C)C=C2C=CC(C)C(CCC3CC(O)CC(=O)O3)C21 (stereo unspecified)
Ans: 1 (yes)

Q: For this molecule, is measured NF-kB SEAP reporter activity 1 or higher? O=C(c1cn(Cc2cncn2Cc2ccc(Br)cc2)cc1-c1cccc2ccccc12)N1CCOCC1
Ans: 1 (yes)

Q: For this molecule, is measured NF-kB SEAP reporter activity 1 or higher? CC(C)NCC(O)COc1cccc2ccccc12.Cl (stereo unspecified)
Ans: 1 (yes)

Q: For this molecule, is measured NF-kB SEAP reporter activity 1 or higher? COc1ccc(Oc2cc(NCCC(F)(F)F)c3ncc(-c4ccc(C(=O)NC5CC5)c(C)c4)n3n2)c(F)c1F
Ans: 1 (yes)

Q: For this molecule, is measured NF-kB SEAP reporter activity 1 or higher? Cc1nc(NC(=O)N2CCCC2C(N)=O)sc1-c1csc(C(C)(C)C)n1 (stereo unspecified)
Ans: 0 (no)
